- PROCEDURE DETAILS: qHTS RealTime-Glo MT Cell Viability Assay in HepG2 cells - 32 hour (AID 1224877); note: nearly all actives have a fitted effect of over 55% in size
- RECORDED CONDITIONS: RealTime-Glo luminescence; series mostly up to 76.8 µM
Records with an inconclusive call do not appear. The source made the active and inactive calls. Calls come from the whole dose curve; as a rule, active = well fitted cell-killing curve with a large enough effect in the repeat runs; inconclusive = weak or mixed curves; inactive = flat fitted curve, though single readings scatter.
PARAMETER MEASURED: outcome

>>> endpoint_result("CNC")
"inactive"
>>> endpoint_result("O=C(O)C(Cl)(Cl)Cl")
"inactive"
>>> endpoint_result("CCCCCCCCn1cc[n+](C)c1")
"inactive"

----------
- TARGET OR SYSTEM: Nuclear receptor ROR-gamma (Homo sapiens)
- PROCEDURE DETAILS: qHTS assay to identify small molecule antagonists of the retinoid-related orphan receptor gamma (ROR-gamma) signaling pathway (AID 1159521; note: nearly all actives have a fitted effect of over 50% in size)
- RECORDED CONDITIONS: Tet-on RORgamma CHO cells, RORE-luciferase, 16 h; series mostly up to 92.4 µM
Inconclusive results are not listed. Active and inactive are the calls of the source. Calls come from the whole dose curve; as a rule, active = well fitted inhibition curve with a large enough effect in the repeat runs; inconclusive = weak or mixed curves, or effect the other way; inactive = no such curve, though single readings can be large or run the other way.
Answer with one of the outcomes active, inactive

>>> category("Cc1cc(Cl)ccc1N")
"inactive"
>>> category("O=c1[nH]c(=O)n(Cl)c(=O)n1Cl")
"inactive"
>>> category("COCC(=O)N(c1c(C)cccc1C)C(C)C(=O)OC (configuration not stated)")
"inactive"
>>> category("CCCn1cc[n+](C)c1")
"inactive"
>>> category("O=c1nc(O)n(Cl)c(=O)n1Cl")
"inactive"
>>> category("CNC")
"inactive"
>>> category("COP(=O)(OC)OC=C(Cl)Cl")
"inactive"
>>> category("CCC[N+]1(C)CCCC1")
"inactive"
>>> category("CCC(=O)C(CC(C)N(C)C)(c1ccccc1)c1ccccc1 (configuration not stated)")
"active"
>>> category("C[N+](C)(C)Cc1ccccc1")
"inactive"

Returns: the outcome recorded for O=C(O)CCl in this assay.
inactive

Returns: the outcome recorded for CCCCCCCCCCn1cc[n+](C)c1 in this assay.
active
